Cited source: the supplement of paper PMC8728848

# assay_target: Gal6S(b1-3)GlcNAc
# protocol: glycan array binding signal (z-score within array); higher = stronger binding
# study_conditions: glycan notation: IUPAC condensed, linker removed
Only a selection was taken, and the strongest signals are over-represented in it overall.
Quick rule for you: glycan array binding signal (z-score) at -0.2 or higher means fulfilled, lower means not fulfilled.

Could you tell me if the measured glycan array binding signal (z-score) of Clec18A (Homo sapiens) (protein) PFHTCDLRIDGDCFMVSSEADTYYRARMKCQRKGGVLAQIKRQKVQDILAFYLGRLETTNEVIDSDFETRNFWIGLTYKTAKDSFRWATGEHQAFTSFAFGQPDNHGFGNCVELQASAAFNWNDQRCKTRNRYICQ reaches -0.2 or more? fulfilled

Could you tell me if the measured glycan array binding signal (z-score) of Gal 4 (Canis lupus) (protein) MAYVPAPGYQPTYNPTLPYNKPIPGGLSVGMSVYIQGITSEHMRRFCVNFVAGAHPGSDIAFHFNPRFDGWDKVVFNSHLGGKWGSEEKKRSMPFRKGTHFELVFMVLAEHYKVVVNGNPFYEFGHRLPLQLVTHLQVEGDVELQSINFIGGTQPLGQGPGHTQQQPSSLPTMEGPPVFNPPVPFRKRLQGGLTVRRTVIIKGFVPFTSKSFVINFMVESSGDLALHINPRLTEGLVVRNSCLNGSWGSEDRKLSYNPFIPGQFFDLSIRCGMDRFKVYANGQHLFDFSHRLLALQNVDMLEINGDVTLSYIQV reaches -0.2 or more? fulfilled

Could you tell me if the measured glycan array binding signal (z-score) of Gal 2 (Canis lupus) (protein) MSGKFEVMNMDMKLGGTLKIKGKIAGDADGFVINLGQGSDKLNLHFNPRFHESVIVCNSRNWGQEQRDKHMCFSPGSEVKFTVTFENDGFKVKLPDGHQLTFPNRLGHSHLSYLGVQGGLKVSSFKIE reaches -0.2 or more? not fulfilled

Could you tell me if the measured glycan array binding signal (z-score) of CpGal16 (Clavelina picta) (protein) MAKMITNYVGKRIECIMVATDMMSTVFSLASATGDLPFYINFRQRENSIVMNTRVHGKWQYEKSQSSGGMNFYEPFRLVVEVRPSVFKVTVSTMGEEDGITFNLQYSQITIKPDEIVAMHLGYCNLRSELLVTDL reaches -0.2 or more? not fulfilled

Could you tell me if the measured glycan array binding signal (z-score) of CCL1 (Coprinopsis cinerea) (protein) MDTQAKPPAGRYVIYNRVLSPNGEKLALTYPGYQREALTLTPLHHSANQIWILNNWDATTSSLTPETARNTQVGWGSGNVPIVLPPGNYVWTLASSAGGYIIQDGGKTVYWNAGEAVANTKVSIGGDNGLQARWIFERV reaches -0.2 or more? fulfilled

Consider the additional binder presented here.
Could you tell me if the measured glycan array binding signal (z-score) of AT3G09350(27) (Arabidopsis thaliana), Q84J81 (protein) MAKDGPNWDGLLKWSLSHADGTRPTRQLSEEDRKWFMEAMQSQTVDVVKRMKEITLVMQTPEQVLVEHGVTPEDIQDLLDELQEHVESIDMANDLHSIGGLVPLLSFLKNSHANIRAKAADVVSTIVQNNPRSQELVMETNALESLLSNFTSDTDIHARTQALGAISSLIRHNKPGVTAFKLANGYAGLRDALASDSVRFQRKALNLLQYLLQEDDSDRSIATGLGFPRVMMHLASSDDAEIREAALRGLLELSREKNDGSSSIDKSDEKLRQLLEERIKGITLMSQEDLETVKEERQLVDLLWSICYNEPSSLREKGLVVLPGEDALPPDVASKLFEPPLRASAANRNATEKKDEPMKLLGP reaches -0.2 or more? fulfilled
